Tested on: zfTac3rb
Test: Receptor transactivation assay, SRE-Luc reporter (PKC activation), COS-7 cells expressing zfTac3rb
Type: cell-based, zebrafish
Conditions: Table 7 (native peptides and analogues); PKC activation; mean ± SEM; read-out: EC50 using SRE, zfTac3rb
*1 amine or outer side, *2 acyl side, *3 side chain or, on linkers, in order; H or OH if unused. Where a SMILES comes first, the peptide text is derived from it. [ ]: non-standard residue; d: D form. Suc = O=C(CCC(=O)[*:2])[*:1]; NMeV = CN[C@H](C(=O)O)C(C)C
test-readout: EC50 (nM)

I: CSCC[C@H](NC(=O)[C@H](CC(C)C)NC(=O)CNC(=O)[C@H](C(C)C)N(C)C(=O)[C@H](Cc1ccccc1)NC(=O)[C@H](CO)NC(=O)[C@H](CC(=O)O)NC(=O)CCC(=O)O)C(N)=O
II: CSCC[C@H](NC(=O)[C@H](CC(C)C)NC(=O)CNC(=O)[C@H](C(C)C)N(C)C(=O)[C@H](Cc1ccccc1)NC(=O)[C@H](CC(=O)O)NC(=O)CCC(=O)O)C(N)=O [zfNKBb-analog, Succ-Asp-Phe-N(Me)Val-Gly-Leu-Met-NH2] (Suc-DF[NMeV]GLM-NH2)
Req: I'm curious whether I or II has the smaller EC50 number. Which is it? State your choice using its label.
Resp: II

----------
Quick reference: EC50 of the listed items.
Test system: zfTac3ra
Experiment: Receptor transactivation assay, CRE-Luc reporter (PKA activation), COS-7 cells expressing zfTac3ra
Assay type: cell-based, zebrafish
Conditions: Table 6 (native peptides and analogues); PKA activation; mean ± SEM; read-out: EC50 using CRE-Luc, zfTac3ra
*1 amine or outer side, *2 acyl side, *3 side chain or, on linkers, in order; H or OH if unused. Where a SMILES comes first, the peptide text is derived from it. [ ]: non-standard residue; d: D form. Suc = O=C(CCC(=O)[*:2])[*:1]; NMeV = CN[C@H](C(=O)O)C(C)C
Give the value, in units of nM, as a plain number.

CSCC[C@H](NC(=O)[C@H](CC(C)C)NC(=O)CNC(=O)[C@H](C(C)C)N(C)C(=O)[C@H](Cc1ccccc1)NC(=O)[C@H](CC(=O)O)NC(=O)CCC(=O)O)C(N)=O [zfNKBb-analog, Succ-Asp-Phe-N(Me)Val-Gly-Leu-Met-NH2] (Suc-DF[NMeV]GLM-NH2); 1.68

Next item in the queue.
Req: Item CC[C@H](C)[C@H](NC(=O)[C@H](CC(=O)O)NC(=O)[C@H](CC(N)=O)NC(=O)[C@@H](N)Cc1ccc(O)cc1)C(=O)N[C@@H](CC(=O)O)C(=O)N[C@@H](Cc1ccc(O)cc1)C(=O)N[C@@H](CC(=O)O)C(=O)N[C@@H](CO)C(=O)N[C@@H](Cc1ccccc1)C(=O)N[C@H](C(=O)NCC(=O)N[C@@H](CC(C)C)C(=O)N[C@@H](CCSC)C(N)=O)C(C)C [zfNKF] (H-YNDIDYDSFVGLM-NH2) has what recorded EC50?
Resp: 4.94

This collection of values is drawn from patent US20150072933A1.
